// values below are reported IC50
- Tested System: PRMT5-MEP50 enzyme (Homo sapiens, UniProt O14744)
- Construct: One virus expresses full length human PRMT5 with Flag-tag at N-terminus
- Sequence (O14744 whole entry): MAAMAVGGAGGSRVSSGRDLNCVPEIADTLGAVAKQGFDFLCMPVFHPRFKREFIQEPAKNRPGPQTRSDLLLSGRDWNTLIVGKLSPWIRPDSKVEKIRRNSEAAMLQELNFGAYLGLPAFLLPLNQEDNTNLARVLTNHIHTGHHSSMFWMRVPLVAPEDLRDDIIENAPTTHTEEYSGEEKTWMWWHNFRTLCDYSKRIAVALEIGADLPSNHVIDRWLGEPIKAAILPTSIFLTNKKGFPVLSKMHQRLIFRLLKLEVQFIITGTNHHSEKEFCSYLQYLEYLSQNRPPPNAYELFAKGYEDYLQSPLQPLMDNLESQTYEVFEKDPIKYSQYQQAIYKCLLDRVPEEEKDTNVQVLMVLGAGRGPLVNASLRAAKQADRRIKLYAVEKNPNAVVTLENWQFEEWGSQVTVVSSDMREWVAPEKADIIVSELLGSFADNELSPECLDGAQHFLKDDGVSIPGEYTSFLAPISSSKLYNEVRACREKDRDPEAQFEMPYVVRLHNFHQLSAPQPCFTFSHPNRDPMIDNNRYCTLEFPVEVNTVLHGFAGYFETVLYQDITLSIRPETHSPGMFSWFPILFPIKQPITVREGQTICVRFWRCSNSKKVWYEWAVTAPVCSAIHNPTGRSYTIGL
- Sequence (Q9BQA1 whole entry partner): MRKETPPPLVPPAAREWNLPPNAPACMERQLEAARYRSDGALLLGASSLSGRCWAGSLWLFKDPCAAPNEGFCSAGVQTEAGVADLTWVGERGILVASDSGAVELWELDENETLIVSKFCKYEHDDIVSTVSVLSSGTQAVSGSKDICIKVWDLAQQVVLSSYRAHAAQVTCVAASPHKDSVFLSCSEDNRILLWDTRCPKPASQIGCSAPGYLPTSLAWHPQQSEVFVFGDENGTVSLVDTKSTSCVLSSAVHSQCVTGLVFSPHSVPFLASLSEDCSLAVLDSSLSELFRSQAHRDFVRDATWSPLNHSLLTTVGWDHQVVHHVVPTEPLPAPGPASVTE
- Assay Notes: In vitro assay (Assay 1): PRMT5-MEP50 high throughput mass spectrometer assay, inhibition of SAH formation
- Format: biochemical
- Condition Info: individual measurements shown, read-out: pIC50 Assay 1 (converted)
- Text: EXPERIMENTAL PROCEDURES IN VITRO ASSAY (ASSAY 1) PRMT5-MEP50 enzyme was purchased from Charles River (Argenta). The enzyme complex was produced in insect cells (Sf9) infected simultaneously with two baculoviruses. One virus expresses full length human PRMT5 with Flag-tag at N-terminus, the second virus expresses full length MEP50 with His6-TEV cleavage at N-terminus. […]
Your answer should be a plain number; it is taken to be in nM.

The examples below pair each entry with its known result.
INSERT INTO results (compound, measurement) VALUES
  ('CC(C)CCN1CCC2(CC1)CC(F)(F)CN2C[C@H]1O[C@@H](n2ccc3c(N)ncnc32)[C@H](O)[C@@H]1O [Compound 184]', 67.6),
  ('NCC[C@@H]1CC(F)(F)CCN1C[C@H]1O[C@@H](c2ccc3c(N)ncnn23)[C@H](O)[C@@H]1O [Compound 128]', 204),
  ('NCC[C@@H]1CC(F)(F)CN1C[C@H]1O[C@@H](c2ccc3c(N)ncnn23)[C@H](O)[C@@H]1O [Compound 156]', 26.3),
  ('Nc1ncnc2c1ccn2[C@@H]1O[C@H](CN2CCOC3(CNC3)C2)[C@@H](O)[C@H]1O [Compound 31]', 39.8),
  ('CNC(=O)CN1CCC2(CCCN2C[C@H]2O[C@@H](n3ccc4c(N)ncnc43)[C@H](O)[C@@H]2O)CC1 [Compound 197]', 6460);

Which value of IC50 has been reported for Nc1ncnc2c1ncn2[C@@H]1O[C@H](CN2CC3(CCN3)C2)[C@@H](O)[C@H]1O [Compound 88] in the records? 46800

Which value of IC50 has been reported for Nc1ncnc2c1ccn2[C@@H]1C[C@H](CN2CC(F)(F)CC23CCNCC3)[C@@H](O)[C@H]1O [Compound 126] in the records? 17.4

Which value of IC50 has been reported for Nc1ncnc2c1ccn2[C@@H]1O[C@H](CN2CCCC3(CNC3)C2)[C@@H](O)[C@H]1O [Compound 45] in the records? 83.2
